Molecular target: assembly of Lp(a) from Apo(a) and the LDL particle (Homo sapiens, UniProt P08519)
Sequence (P08519 20-2040 limits assumed): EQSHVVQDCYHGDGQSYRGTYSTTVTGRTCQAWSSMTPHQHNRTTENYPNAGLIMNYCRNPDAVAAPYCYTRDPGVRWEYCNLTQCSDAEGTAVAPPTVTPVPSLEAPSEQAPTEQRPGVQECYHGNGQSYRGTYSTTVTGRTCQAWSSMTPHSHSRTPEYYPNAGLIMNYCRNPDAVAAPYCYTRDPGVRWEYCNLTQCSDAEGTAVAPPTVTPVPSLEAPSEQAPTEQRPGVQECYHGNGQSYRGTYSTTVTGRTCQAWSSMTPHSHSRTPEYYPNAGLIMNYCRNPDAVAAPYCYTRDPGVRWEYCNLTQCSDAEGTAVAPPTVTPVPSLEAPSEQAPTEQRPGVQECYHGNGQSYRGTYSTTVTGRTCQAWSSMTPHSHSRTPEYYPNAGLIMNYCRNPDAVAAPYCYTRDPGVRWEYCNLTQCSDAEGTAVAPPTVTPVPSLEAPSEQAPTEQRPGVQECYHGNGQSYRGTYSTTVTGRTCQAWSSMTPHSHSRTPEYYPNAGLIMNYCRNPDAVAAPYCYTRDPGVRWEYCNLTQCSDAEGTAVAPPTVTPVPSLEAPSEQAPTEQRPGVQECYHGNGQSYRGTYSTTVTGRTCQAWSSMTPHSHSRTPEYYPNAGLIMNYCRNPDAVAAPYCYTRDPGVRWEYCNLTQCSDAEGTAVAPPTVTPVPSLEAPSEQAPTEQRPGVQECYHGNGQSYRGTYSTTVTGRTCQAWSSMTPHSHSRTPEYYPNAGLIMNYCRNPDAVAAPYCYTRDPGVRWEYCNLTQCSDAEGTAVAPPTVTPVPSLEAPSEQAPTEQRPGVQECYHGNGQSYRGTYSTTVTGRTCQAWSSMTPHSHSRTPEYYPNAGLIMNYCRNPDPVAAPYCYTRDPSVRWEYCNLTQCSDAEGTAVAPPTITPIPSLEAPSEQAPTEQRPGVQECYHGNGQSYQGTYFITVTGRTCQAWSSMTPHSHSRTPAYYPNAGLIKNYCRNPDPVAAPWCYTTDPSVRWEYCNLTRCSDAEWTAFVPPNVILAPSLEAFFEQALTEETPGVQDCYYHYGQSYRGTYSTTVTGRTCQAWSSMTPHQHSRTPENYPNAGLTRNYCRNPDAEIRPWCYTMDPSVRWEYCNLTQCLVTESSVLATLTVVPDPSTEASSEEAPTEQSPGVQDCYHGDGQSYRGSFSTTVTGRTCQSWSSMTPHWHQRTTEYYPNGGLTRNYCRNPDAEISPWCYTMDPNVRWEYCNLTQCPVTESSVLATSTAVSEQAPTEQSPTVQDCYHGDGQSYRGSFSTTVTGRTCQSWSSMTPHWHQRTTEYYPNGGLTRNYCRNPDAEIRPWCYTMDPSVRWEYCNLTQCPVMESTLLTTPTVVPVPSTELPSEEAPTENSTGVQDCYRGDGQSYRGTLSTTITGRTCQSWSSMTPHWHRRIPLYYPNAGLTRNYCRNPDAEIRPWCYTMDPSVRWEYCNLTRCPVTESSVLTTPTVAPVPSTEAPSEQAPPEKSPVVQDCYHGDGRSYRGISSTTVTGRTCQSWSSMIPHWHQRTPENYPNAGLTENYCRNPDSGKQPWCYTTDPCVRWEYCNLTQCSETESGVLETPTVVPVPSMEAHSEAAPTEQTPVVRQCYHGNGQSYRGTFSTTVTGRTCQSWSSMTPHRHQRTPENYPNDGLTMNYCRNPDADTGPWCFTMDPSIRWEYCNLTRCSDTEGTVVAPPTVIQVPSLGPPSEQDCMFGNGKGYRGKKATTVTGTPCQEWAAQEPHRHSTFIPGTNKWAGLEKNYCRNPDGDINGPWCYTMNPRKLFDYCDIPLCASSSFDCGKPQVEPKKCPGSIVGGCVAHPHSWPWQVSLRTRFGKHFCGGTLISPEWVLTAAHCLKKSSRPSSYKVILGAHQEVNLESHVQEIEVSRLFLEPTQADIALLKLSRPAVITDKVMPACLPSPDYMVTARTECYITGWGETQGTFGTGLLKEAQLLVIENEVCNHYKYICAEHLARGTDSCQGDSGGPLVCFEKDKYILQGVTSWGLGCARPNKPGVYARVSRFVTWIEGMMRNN
Assay: In vitro Lp(a) assembly assay (cell-free, HepG2 and HEK293 conditioned media, sandwich ELISA)
Conditions: inhibition of Lp(a) formation, 37° C. for 2 hrs; geometric mean ± SEM (n)
Counter-ions that a name gives are not always drawn.
VALUE_TYPE: pIC50
Lab note: report pIC50 as minus log10 of the concentration in molar units, number only.

# count of solved cases: 5
[in] Find pIC50 (assembly of Lp(a) from Apo(a) and the LDL particle (Homo sapiens, UniProt P08519)) for the entry CN1CC[C@H]([C@H](Cc2cccc(Nc3cccc(C[C@H](C(=O)O)[C@H]4CCN(C)C4)c3)c2)C(=O)O)C1 [Example 15, dihydrochloride]
[out] 7.26

[in] Find pIC50 (assembly of Lp(a) from Apo(a) and the LDL particle (Homo sapiens, UniProt P08519)) for the entry O=C(O)[C@@H](Cc1cccc(CNCc2cccc(C[C@H](C(=O)O)[C@H]3CCNC3)c2)c1)[C@H]1CCNC1 [Example 3, trihydrochloride]
[out] 9.03

[in] Find pIC50 (assembly of Lp(a) from Apo(a) and the LDL particle (Homo sapiens, UniProt P08519)) for the entry O=C(O)[C@@H](Cc1cccc(S(=O)(=O)c2cccc(C[C@H](C(=O)O)[C@H]3CCNC3)c2)c1)[C@H]1CCNC1 [Example 12, dihydrochloride]
[out] 9.63

[in] Find pIC50 (assembly of Lp(a) from Apo(a) and the LDL particle (Homo sapiens, UniProt P08519)) for the entry O=C(O)[C@@H](Cc1cccc(OCCOc2cccc(C[C@H](C(=O)O)[C@H]3CCNC3)c2)c1)[C@H]1CCNC1 [Example 8, dihydrochloride]
[out] 9.54

[in] Find pIC50 (assembly of Lp(a) from Apo(a) and the LDL particle (Homo sapiens, UniProt P08519)) for the entry O=C(O)[C@@H](Cc1cccc(Nc2cccc(C[C@H](C(=O)O)[C@H]3CCNC3)c2)c1)[C@H]1CCNC1 [Example 14, dihydrochloride]
[out] 9.46

Others:
[in] Find pIC50 (assembly of Lp(a) from Apo(a) and the LDL particle (Homo sapiens, UniProt P08519)) for the entry O=C(O)[C@@H](Cc1cccc(Oc2cccc(C[C@H](C(=O)O)[C@H]3CCNC3)c2)c1)[C@H]1CCNC1 [Example 7, dihydrochloride]
[out] 9.43

---

// reported Lp(a) inhibition (% at 30 mpk) per item
Tested on: plasma Lp(a)
Test: In vivo Lp(a) inhibition in mice
Conditions: 30 mpk oral twice a day; day 3 at 8 h post morning oral dose; mean ± SEM
Where a name gives a salt, the structure may show the parent alone.
Kindly answer with a numeric value in %, unit omitted.

# count of solved cases: 3
[in] What does the record list as Lp(a) inhibition (% at 30 mpk) for O=C(O)[C@@H](Cc1cccc(CN(Cc2cccc(C[C@H](C(=O)O)[C@H]3CCNC3)c2)Cc2cccc(C[C@H](C(=O)O)[C@H]3CCNC3)c2)c1)[C@H]1CCNC1 [Example 1] ?
[out] 91

[in] What does the record list as Lp(a) inhibition (% at 30 mpk) for Cl.O=C(O)[C@H](Cc1ccccc1)[C@@H]1CCNC1 [Example 18] ?
[out] 68

[in] What does the record list as Lp(a) inhibition (% at 30 mpk) for Cl.O=C(O)[C@@H](Cc1ccccc1)[C@H]1CCNC1 [Example 17] ?
[out] 60

Let us examine a further case.
[in] What does the record list as Lp(a) inhibition (% at 30 mpk) for O=C(O)[C@@H](Cc1cccc(Nc2cccc(C[C@H](C(=O)O)[C@H]3CCNC3)c2)c1)[C@H]1CCNC1 [Example 14, dihydrochloride] ?
[out] 72

---

Test system: plasma Lp(a)
Experiment: In vivo Lp(a) inhibition in mice
Conditions: effective dose for 50% Lp(a) inhibition; oral, twice a day; day 3 at 8 h post morning oral dose; ED50 ± standard error
Counter-ions that a name gives are not always drawn.
// reported ED50 per item
// unit must come after the numeric part

[in] Find ED50 (plasma Lp(a)) for the entry Cl.O=C(O)[C@@H](Cc1ccccc1)[C@H]1CCNC1
[out] 20.6 ± 1.79 mg/kg

[in] Find ED50 (plasma Lp(a)) for the entry O=C(O)[C@@H](Cc1cccc(Nc2cccc(C[C@H](C(=O)O)[C@H]3CCNC3)c2)c1)[C@H]1CCNC1 [Example 14, dihydrochloride]
[out] 14.6 ± 2.48 mg/kg

[in] Find ED50 (plasma Lp(a)) for the entry Cl.O=C(O)[C@H](Cc1ccccc1)[C@@H]1CCNC1
[out] 7.6 ± 2.43 mg/kg

[in] Find ED50 (plasma Lp(a)) for the entry O=C(O)[C@@H](Cc1cccc(CN(Cc2cccc(C[C@H](C(=O)O)[C@H]3CCNC3)c2)Cc2cccc(C[C@H](C(=O)O)[C@H]3CCNC3)c2)c1)[C@H]1CCNC1
[out] 3.3 ± 0.53 mg/kg

---

Biological target: UniProt P08519
Experiment: In vitro Lp(a) assembly assay (cell-free, HepG2 and HEK293 conditioned media, sandwich ELISA)
Details: inhibition of Lp(a) formation, 37° C. for 2 hrs; geometric mean ± SEM (n)
Counter-ions that a name gives are not always drawn.
VALUE_TYPE: pIC50
Lab note: report pIC50 as minus log10 of the concentration in molar units, number only.

[in] What does the record list as pIC50 for CC(Cc1cccc(CN(Cc2cccc(CC(C)(C(=O)O)[C@H]3CCNC3)c2)Cc2cccc(CC(C)(C(=O)O)[C@H]3CCNC3)c2)c1)(C(=O)O)[C@H]1CCNC1 (stereo partly drawn) ?
[out] 9.97

Others:
[in] What does the record list as pIC50 for O=C(O)[C@@H](Cc1cccc(NS(=O)(=O)Nc2cccc(C[C@H](C(=O)O)[C@H]3CCNC3)c2)c1)[C@H]1CCNC1 [Example 16, dihydrochloride] ?
[out] 9.25

[in] What does the record list as pIC50 for O=C(O)[C@@H](Cc1cccc(COc2cccc(C[C@H](C(=O)O)[C@H]3CCNC3)c2)c1)[C@H]1CCNC1 [Example 9, dihydrochloride] ?
[out] 9.44

---

// reported IC50 per item
Target: assembly of Lp(a) from Apo(a) and the LDL particle (Homo sapiens, UniProt P08519)
Assay: In vitro Lp(a) assembly assay (cell-free, HepG2 and HEK293 conditioned media, sandwich ELISA)
Details: inhibition of Lp(a) formation, 37° C. for 2 hrs; geometric mean ± SEM (n)
Structures can show the parent of a compound that is named as a salt.
Kindly answer with a numeric value in nM, unit omitted.

# count of solved cases: 4
[in] What does the record list as IC50 for O=C(O)[C@@H](Cc1cccc(Sc2cccc(C[C@H](C(=O)O)[C@H]3CCNC3)c2)c1)[C@H]1CCNC1 [Example 10, dihydrochloride] ?
[out] 0.36

[in] What does the record list as IC50 for COc1cc(F)cc(CN(Cc2cccc(C[C@H](C(=O)O)[C@H]3CCNC3)c2)Cc2cccc(C[C@H](C(=O)O)[C@H]3CCNC3)c2)c1 [Example 5, trihydrochloride] ?
[out] 0.17

[in] What does the record list as IC50 for O=C(O)[C@@H](Cc1cccc([S+]([O-])c2cccc(C[C@H](C(=O)O)[C@H]3CCNC3)c2)c1)[C@H]1CCNC1 [Example 11, dihydrochloride] ?
[out] 0.396

[in] What does the record list as IC50 for O=C(O)[C@@H](Cc1cccc(CN(Cc2cccc(C[C@H](C(=O)O)[C@H]3CCNC3)c2)Cc2cccc(C[C@H](C(=O)O)[C@H]3CCNC3)c2)c1)[C@H]1CCNC1 [Example 1] ?
[out] 0.0963

Others:
[in] What does the record list as IC50 for O=C(O)[C@@H](Cc1cccc(CNc2cccc(C[C@H](C(=O)O)[C@H]3CCNC3)c2)c1)[C@H]1CCNC1 [Example 13, trihydrochloride] ?
[out] 2.39
